assay: Comparative pharmacokinetic analysis after a single intravenous dose; conditions: Balb/C, mouse, plasma, iv, 1 mg/kg

{"COMPOUND": "CC(C)OC(=O)NNC(=O)c1ccncc1.Cl [prodrug 1d]", "UNITS SYMBOL": "ng/mL", "Cmax": 90}

---

assay: Aqueous solubility in Tris HCl buffer (pH 7.4), shake flask method; details: Tris HCl buffer, 37 °C, pH 7.4, aqueous buffer, thermodynamic from solid
Label met when solubility at 24 h is at or above 100 mg/mL; otherwise label not met.

{"MOLECULE": "CC(C)OC(=O)NNC(=O)c1ccncc1.Cl [prodrug 1d]", "ASSIGNED CLASS": "not met"}
{"MOLECULE": "CCCCOC(=O)NNC(=O)c1ccncc1.Cl [prodrug 1e]", "ASSIGNED CLASS": "not met"}
{"MOLECULE": "Cl.O=C(NNC(=O)c1ccncc1)OCc1ccccc1 [prodrug 1h]", "ASSIGNED CLASS": "not met"}
{"MOLECULE": "CCC(C)OC(=O)NNC(=O)c1ccncc1.Cl (stereo not drawn) [prodrug 1i]", "ASSIGNED CLASS": "met"}
{"MOLECULE": "CCCOC(=O)NNC(=O)c1ccncc1.Cl [prodrug 1c]", "ASSIGNED CLASS": "not met"}
{"MOLECULE": "C=CCOC(=O)NNC(=O)c1ccncc1.Cl [prodrug 1g]", "ASSIGNED CLASS": "met"}
